Property: koff; scope: individual binders
Biological target: T1, MAdCAM (analyte of the BIAcore experiment) (UniProt Q13477 19-317)
T1 construct: The antibodies are called anti-hMAdCAM; also called Mucosal addressin cell adhesion molecule
T1 sequence (looked up): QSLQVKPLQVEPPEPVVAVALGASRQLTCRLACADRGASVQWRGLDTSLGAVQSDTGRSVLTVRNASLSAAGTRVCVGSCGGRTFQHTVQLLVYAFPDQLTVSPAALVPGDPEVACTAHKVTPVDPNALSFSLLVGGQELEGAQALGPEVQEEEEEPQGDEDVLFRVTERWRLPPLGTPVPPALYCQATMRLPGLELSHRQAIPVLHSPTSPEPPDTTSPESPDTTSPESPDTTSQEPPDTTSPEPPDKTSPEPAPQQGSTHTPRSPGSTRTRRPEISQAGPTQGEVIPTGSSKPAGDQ
Test: BIAcore (SPR); antibody immobilised, MAdCAM injected

| binder | koff / s⁻¹ |
| --- | --- |
| 7.16.6_L (antibody, V domains shown, The light chain is the parent 7.16.6 kappa chain, rebuilt as for m1; also called 7.16.6_L variant) VH: QVQLVQSGAEVKKPGASVKVSCKASGYTFTSYGINWVRQAPGQGLEWMGWISVYSGNTNYAQKLQGRVTMTADTSTSTAYMDLRSLRSDDTAVYYCAREGSSSSGDYYYGMDVWGQGTTVTVSS VL: DIVMTQTPLSLSVTPGQPASISCKSSQSLLHTDGTTYLYWYLQKPGQPPQLLIYEVSNRFSGVPDRFSGSGSGTDFTLKISRVEAEDVGIYYCMQNIQLPWTFGQGTKVEIKR | 1.21e-05 |
| 7.16.6_V (antibody, human IgG2, kappa, V domains shown, Recombinant, from transiently transfected FreeStyle HEK293 cells; also called 7.16.6_V adduct) VH: QVQLVQSGAEVKKPGASVKVSCKASGYTFTSYGINWVRQAPGQGLEWMGWISVYSGNTNYAQKVQGRVTMTADTSTSTAYMDLRSLRSDDTAVYYCAREGSSSSGDYYYGMDVWGQGTTVTVSS VL: DIVMTQTPLSLSVTPGQPASISCKSSQSLLHTDGTTYLYWYLQKPGQPPQLLIYEVSNRFSGVPDRFSGSGSGTDFTLKISRVEAEDVGVYYCMQNIQLPWTFGQGTKVEIKR | 2.49e-05 |
| 7.16.6_LVS (antibody, human IgG2, kappa, V domains shown, Recombinant, from transiently transfected FreeStyle HEK293 cells) VH: QVQLVQSGAEVKKPGASVKVSCKASGYTFTSYGINWVRQAPGQGLEWMGWISVYSGNTNYAQKLQGRVTMTADTSTSTAYMDLRSLRSDDTAVYYCAREGSSSSGDYYYGMDVWGQGTTVTVSS VL: DIVMTQTPLSLSVTPGQPASISCKSSQSLLHTDGTTYLYWYLQKPGQPPQLLIYEVSNRFSGVPDRFSGSGSGTDFTLKISRVEAEDVGVYYCMQSIQLPWTFGQGTKVEIKR | 2.31e-05 |
| 7.16.6_VS (antibody, human IgG2, kappa, V domains shown, Recombinant, from transiently transfected FreeStyle HEK293 cells; also called 7.16.6_VS adduct) VH: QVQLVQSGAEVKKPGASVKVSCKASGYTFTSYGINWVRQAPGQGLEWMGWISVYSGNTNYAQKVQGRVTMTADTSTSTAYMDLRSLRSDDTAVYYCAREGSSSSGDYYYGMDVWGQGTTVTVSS VL: DIVMTQTPLSLSVTPGQPASISCKSSQSLLHTDGTTYLYWYLQKPGQPPQLLIYEVSNRFSGVPDRFSGSGSGTDFTLKISRVEAEDVGVYYCMQSIQLPWTFGQGTKVEIKR | 2.18e-05 |
